- ASSAYED TARGET: Recombinant human LTC4 synthase (Homo sapiens, UniProt Q16873)
- Sequence (Q16873 1-150): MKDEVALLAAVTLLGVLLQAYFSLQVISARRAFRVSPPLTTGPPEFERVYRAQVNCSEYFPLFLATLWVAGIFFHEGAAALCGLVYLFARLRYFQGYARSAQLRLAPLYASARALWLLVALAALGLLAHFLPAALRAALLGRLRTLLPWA
- ASSAY REMARKS: LTC4 synthase in vitro assay (LTA4 to LTC4, HTRF detection)
QUANTITY MEASURED: IC50 (nM)

# STRUCTURE SMILES STRING, UNIT INFO, IC50
measured = [
    ("O=C(c1ccc(-n2nc(-c3ccccc3)cc2C(F)(F)F)c(C(=O)O)c1)c1ccc(N(CC2CC2)c2ccc(Cl)cc2)cn1", "nM", 65),
    ("COc1cc(OC)cc(Oc2ccc(C(=O)c3ccc(N(CC4CC4)c4ccc(Cl)cc4)cn3)cc2C(=O)O)c1", "nM", 70),
]

1 = CN(c1ccc(Cl)cc1)c1ccc(C(=O)c2ccc(NCc3ccccc3)c(C(=O)O)c2)nc1
2 = N#CCCCN(c1ccc(Cl)cc1)c1ccc(C(=O)c2ccc(Oc3ccccc3)c(C(=O)O)c2)nc1
Between 1 and 2 , which one has the lower reported IC50 value? Reply with the label of the item you choose.
1

* * *

- ASSAYED TARGET: Recombinant human LTC4 synthase (Homo sapiens, UniProt Q16873)
- Construct: made in house; host or cells: Pichia pastoris ('Piccia pastoralis' [sic])
- ASSAY REMARKS: LTC4 synthase in vitro assay (LTA4 to LTC4, HTRF detection)
- Type: biochemical
pIC50: −log10 of the molar value.
QUANTITY MEASURED: pIC50

Consider the following illustrative entries.
# MOLECULE, RESULT VALUE
rows = [
    ("CN(c1ccc(Cl)cc1)c1ccc(C(=O)c2ccc(C(=O)c3ccc(C(F)(F)F)cc3)c(C(=O)O)c2)nc1 [5:11]", 6.67),
    ("C#CCN(c1ccc(Cl)cc1)c1ccc(C(=O)c2ccc(Oc3ccccc3)c(C(=O)O)c2)nc1 [1:9]", 7.32),
    ("COc1ccccc1C(=O)Nc1ccc(C(=O)c2ccc(N(C)c3ccc(Cl)cc3)cn2)cc1C(=O)O [3:5]", 7.49),
    ("C=CCN(c1ccc(C(=O)c2ccc(Oc3ccccc3)c(C(=O)O)c2)nc1)c1ccc(F)c(F)c1 [1:21]", 6.53),
    ("O=C(c1ccc(Oc2ccccc2Oc2ccccc2F)c(C(=O)O)c1)c1ccc(N(CC2CC2)c2ccc(Cl)cc2)cn1 [1:46]", 7.40),
]

P = COc1ccccc1Nc1ccc(C(=O)c2ccc(N(C)c3ccc(Cl)cc3)cn2)cc1C(=O)O [2:14]
Q = CN(c1ccc(Cl)cc1)c1ccc(C(=O)c2ccc(NC(=O)c3ccc4c(c3)OC(F)(F)O4)c(C(=O)O)c2)nc1 [3:17]
R = COc1cccc(COc2ccc(C(=O)c3ccc(N(C)c4ccc(Cl)cc4)cn3)cc2C(=O)O)c1 [12:6]
// sort entries: pIC50, high to low // format: requested-order list of labels
Q, P, R
(Q: 7.42, P: 7.17, R: 6.66)

* * *

- ASSAYED TARGET: Recombinant human LTC4 synthase (Homo sapiens)
- Sequence (Q16873 1-150): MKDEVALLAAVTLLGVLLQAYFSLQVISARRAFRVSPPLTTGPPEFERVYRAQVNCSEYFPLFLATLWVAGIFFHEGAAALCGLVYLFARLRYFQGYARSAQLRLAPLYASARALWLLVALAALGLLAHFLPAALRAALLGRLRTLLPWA
- ASSAY REMARKS: LTC4 synthase in vitro assay (LTA4 to LTC4, HTRF detection)
pIC50: −log10 of the molar value.
QUANTITY MEASURED: pIC50

Recorded pIC50, per entry:
# STRUCTURE SMILES STRING, QUANTITY MEASURED, RESULT VALUE
records = [
    ("CN(c1ccc(C(F)(F)F)cc1)c1ccc(C(=O)c2ccc(C(=O)c3ccccc3)c(C(=O)O)c2)nc1", "pIC50", 7.11),
    ("COc1cccc(C(=O)Nc2ccc(C(=O)c3ccc(N(C)Cc4ccc(Cl)cc4)cn3)cc2C(=O)O)c1", "pIC50", 7.68),
]

a = COc1cccc(C(=O)Nc2ccc(C(=O)c3ccc(N(C)c4ccc(Cl)cc4)cn3)cc2C(=O)O)c1
b = CN(c1ccc(Cl)cc1)c1ccc(C(=O)c2ccc(NC(=O)c3cccc(C(F)(F)F)c3)c(C(=O)O)c2)nc1
Which gives the smaller pIC50 number: a or b ? The response must carry the label of the picked entry.
b

Recorded values, source patent US20120004244A1.
